# testDetails: in vivo
# conditionContext: rat, plasma, iv
measuredEndpoint: half-life (min)
Your answer is read as min, so omit the unit and give the number.

Take a look at these entries with their results.
INSERT INTO measurements (compound, assayvalue) VALUES
  ('CC(C)c1nc(CN(C)C(=O)NC(C(=O)N[C@@H](Cc2ccccc2)C[C@H](O)[C@H](Cc2ccccc2)NC(=O)OCc2cnco2)C(C)C)co1 (some centres not stated)', 15.6),
  ('CC(C)c1nc(CN(C)C(=O)NCCC(=O)N[C@@H](Cc2ccccc2)C[C@H](O)[C@H](Cc2ccccc2)NC(=O)OCc2cncs2)cs1', 57.6),
  ('CC(C)C(NC(=O)OCc1csc(N2CCOCC2)n1)C(=O)N[C@@H](Cc1ccccc1)[C@@H](O)C[C@H](Cc1ccccc1)NC(=O)OCc1cccnc1 (some centres not stated)', 21),
  ('CCc1nc(CN(C)C(=O)NC(C(=O)N[C@@H](Cc2ccccc2)C[C@H](O)[C@H](Cc2ccccc2)NC(=O)OCc2cncs2)C(C)C)cs1 (some centres not stated)', 48),
  ('Cc1ncc(COC(=O)NC(C(=O)N[C@@H](Cc2ccccc2)[C@@H](O)C[C@H](Cc2ccccc2)NC(=O)OCc2cccnc2)C(C)C)nc1C (some centres not stated)', 18);

What does the record list as half-life for CC(C)C(NC(=O)OCc1ccccn1)C(=O)N[C@@H](Cc1ccccc1)[C@@H](O)C[C@H](Cc1ccccc1)NC(=O)OCc1cncnc1 (some centres not stated) ?
30

Looking for the measured half-life of CC(C)C(NC(=O)N(C)Cc1cscn1)C(=O)N[C@@H](Cc1ccccc1)C[C@H](O)[C@H](Cc1ccccc1)NC(=O)OCc1cccnc1 (some centres not stated) , can you help?
40.2
